# target_entity: Platelet-activating factor acetylhydrolase (Homo sapiens)
# protocol_description: pPAFAH enzyme inhibitors, primary screen, biochemical, fluorescence polarization, human (AID 463082);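 also: inhibitors block binding of the rhodamine activity-based probe so polarization drops; 0% = enzyme with DMSO and 100% = wells lacking pPAFAH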
# assay_conditions: recombinant pPAFAH, FP-rhodamine probe fluorescence polarization; at 3.39 µM
Screen size: about 330,000 compounds; about 4,900 (1.5%) were called active.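 The calls were made as follows: active = inhibition above the mean inhibition across the screen plus 3 SD (cut at about 25% in these data); inactive = the rest.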 For the sample, actives were picked, then their nearest neighbours and some compounds at random.
Select the correct class. Options are active, inactive and nothing else.

compound	assigned_class
Cc1ccc(-n2nc3ccc(NC(=O)/C=C/c4ccco4)cc3n2)cc1C	inactive

**Q:** So what was the verdict on "CCN(CC)S(=O)(=O)c1cc([N+](=O)[O-])ccc1NNC(=O)Nc1ccccc1" in this test?
**A:** inactive

**Q:** What call does the record list for Cc1ccc(-n2c(C)cc(/C=C(\C#N)C(=O)NCC3CCCO3)c2C)cc1 (stereo not given) ?
**A:** active

**Q:** Record request — test call for "Cc1ccccc1Cn1nc(C)c(NC(=O)C(F)(F)F)c1C"
**A:** inactive

**Q:** // param item: "CN(C)S(=O)(=O)c1ccc(N2CCCC2)c(C(=O)Nc2cccc(F)c2)c1" ; yields the recorded call
**A:** inactive

**Q:** Check the results log: what was the call for "Cn1ncc(N2CCN(S(=O)(=O)c3ccc(Br)cc3)CC2)c(Cl)c1=O" ?
**A:** inactive

**Q:** What classification did "O=C1NN(c2ccccc2)C(=O)/C1=C/c1ccc(-c2cccc(C(=O)O)c2)o1" end up with in this test?
**A:** inactive

**Q:** Which result was noted for this compound in the test: "Cc1cc(/C=C(/C#N)C(=O)Nc2ccc(Cl)cc2)c(C)n1-c1cccnc1"
**A:** inactive

**Q:** Returns: the outcome recorded for Cc1ccc(C(=O)N/C(=C/c2cccs2)C(=O)NCC2CCCO2)cc1 (stereo not given) in this assay.
**A:** inactive

**Q:** Call for entry O=C(O)C(c1ccccc1)N1C(=O)/C(=C\c2ccc(-c3cccc(Cl)c3)o2)SC1=S (stereo not given) :
**A:** active

====

# target_entity: Platelet-activating factor acetylhydrolase (Homo sapiens)
# protocol_description: pPAFAH enzyme inhibitors, primary screen, biochemical, fluorescence polarization, human (AID 463082);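 also: inhibitors block binding of the rhodamine activity-based probe so polarization drops; 0% = enzyme with DMSO and 100% = wells lacking pPAFAH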
# assay_conditions: recombinant pPAFAH, FP-rhodamine probe fluorescence polarization; at 3.39 µM
The whole screen tested about 330,000 compounds, of which about 4,900 (1.5%) were called active.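 Rule for the calls: active = inhibition above the mean inhibition across the screen plus 3 SD (cut at about 25% in these data); inactive = the rest.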 Only a selection was taken, and actives are over-represented in it overall.
Just give me one of these, please: class 1 = active, class 0 = inactive

molecule	assigned_class
O=C(N[C@@H]1C/C=C\C[C@@H](CC(=O)N(CCO)Cc2ccccc2)C(=O)N[C@H](Cc2ccccc2)COC1=O)OCC1c2ccccc2-c2ccccc21	class 0
O=C(Nc1ccc(F)cc1)N1CCCC(c2nc3c(nnn3Cc3ccccc3Cl)c(=O)[nH]2)C1 (configuration not stated)	class 0

**Q:** Assay outcome for "Cc1ccc(S(=O)(=O)N2CCN(CC(=O)N/N=C/c3cc([N+](=O)[O-])ccc3Cl)CC2)cc1" : what was it?
**A:** class 0

**Q:** Dear colleague, could you share the recorded outcome for CC1CCCCC1NC(=O)COC(=O)Cc1ccc(Cl)cc1 (configuration not stated) when you have a moment?
**A:** class 1

**Q:** Hi, sorry to bother you, what did the test record for "CCN(CCCNC(=O)C1CCN(S(=O)(=O)c2cnc[nH]2)CC1)c1ccccc1" ?
**A:** class 0

**Q:** Answer briefly: the call reported for "O=C(N/N=C/c1cccnc1)c1cc2ccccc2cc1O" in this assay.
**A:** class 1

**Q:** How was "Cc1cc(N2CCCC2)ccc1NC(=O)COc1ccc(Cl)cc1" classified in this test?
**A:** class 1

**Q:** Assay result, entry CSc1ccc(C(=O)C2CCCN(C(=O)c3ccc(C)nc3)C2)cc1 (configuration not stated) — outcome?
**A:** class 0

**Q:** Test call for this molecule, please: "CCN(CCCNC(=O)c1ccc2c(c1)NC(=O)CN2C)c1cccc(C)c1"
**A:** class 1

Recorded values, source PubChem BioAssay AID463082.
